The reported numbers originate from patent US20230322958A1.

Recorded kon values for a group of binders are listed next.
- target_of_assay: T1, huNotch2-EGF6-10 (human, UniProt Q04721 219-418)
- T1 construct: also called human Notch2 EGF6-10
- T1 sequence: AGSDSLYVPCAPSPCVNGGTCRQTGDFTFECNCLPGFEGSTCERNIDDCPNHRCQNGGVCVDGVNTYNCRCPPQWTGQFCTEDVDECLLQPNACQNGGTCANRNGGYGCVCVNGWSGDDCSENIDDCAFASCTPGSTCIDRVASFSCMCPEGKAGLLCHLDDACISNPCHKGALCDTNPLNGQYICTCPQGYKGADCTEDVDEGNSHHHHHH
- assay_name: SPR BIAcore T200, antibody captured on protein A, 37 C
Note: unit M⁻¹ s⁻¹ is implicit; provide only the numeric part.

See these solved cases before continuing.
| binder | kon (M⁻¹ s⁻¹) |
| --- | --- |
| rat.3107 (rat/human chimeric anti-Notch2 antibody 3107) (antibody, V domains shown) VH: QVQLQQSGAELAKSGSSVKISCKASGYTFSNYVIHWIKQTTGQAPEWTGYIIPGSGGTKFNEKFKGKATLTVDKSSTTAYMQLSSLTPVDTAVYYCARDGAGSFTYWGQGTLVTVSS VL: DVLMTQTPVSLPVSLGGQVSISCRSSQSLVHSDGNTYLHWFLQKPGQSPQLLIYRISNRFSGVPDRFSGSGSGTDFTLKISRVEPEDLGVYYCLQSTHFPDTFGGGTKVEIK | 363000 |
| hu1B2.L7H10 (antibody, V domains shown, Human IgG1 backbone) VH: EVQLVESGGGLVQPGGSLKLSCAVSGFTFSDFYMEWVRQASGKGLEWVAASRNKANDFSIVYSASVKDRFTISRDDSKSTAYLQMNSLKTEDTAVYYCSRDSGRWGLDAWGQGTLVTVSS VL: DIQMTQSPSSVSASVGDRVTITCQTSEDIYSGLAWYQQKPGKSPKLLIYGASRLQDGVPSRFSGSGSGTDYTLTISSLQPEDFATYYCQQGFKYPLTFGGGTKVEIK | 418000 |

The reported value for rat.1B2 (rat/human chimeric anti-Notch2 antibody 1B2) (antibody, V domains shown, also called 1B2 Chimeric; chimeric 1B2) VH: EVKLVDYGGGLVQPGASLRLSCEVSGFTFSDFYMEWIRQAPGKGLEWIAASRNKANNFSIVYSASVKDRFTISRDTYKSILYLQMSTLKPEDTAVYYCSRDSGRWGLDAWGQGTSVIVSS VL: DIQMTQSPASLSASLGETVTIQCQTSEDIYSGLAWYHQKPGKSPQLLIYGASRLQDGVPSRFTGSGSGTQYSLKISSMQTEDEGVYFCQQGFKYPLTFGSGTKLEIK in terms of kon is 181000

The reported value for hu1B2.v104 (antibody, V domains shown, Human IgG1 backbone; also called hu1B2.v014) VH: EVQLVESGGGLVQPGGSLKLSCAVSGFTFSDFYMEWVRQASGKGLEWVAAQRNKANDFSIVYSASVKDRFTISRDDSKSTLYLQMNSLKTEDTAVYYCSRDGGKLALDAWGQGTLVTVSS VL: DIQMTQSPSSVSASVGDRVTITCQTSEDIYSGLAWYQQKPGKSPKLLIYGASRLQDGVPSRFSGSGSGTDYTLTISSLQPEDFATYYCQQGFKYPLTFGGGTKVEIK in terms of kon is 357000

The reported value for hu1B2.L7H14 (antibody, V domains shown, Human IgG1 backbone; also called hu.1B2.DFS.H14L7) VH: EVQLVESGGGLVQPGGSLKLSCAVSGFTFSDFYMEWVRQASGKGLEWVAASRNKANDFSIVYSASVKDRFTISRDDSKSTLYLQMNSLKTEDTAVYYCSRDSGRWGLDAWGQGTLVTVSS VL: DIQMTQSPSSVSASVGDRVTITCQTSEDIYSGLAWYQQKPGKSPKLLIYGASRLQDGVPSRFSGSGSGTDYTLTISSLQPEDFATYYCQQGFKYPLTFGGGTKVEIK in terms of kon is 219000
